Target: His tagged PTPN2 (TC45) protein (Homo sapiens, UniProt P17706)
Construct: made in house
Sequence (P17706 with tags, fused parts or gaps isoform P17706-2): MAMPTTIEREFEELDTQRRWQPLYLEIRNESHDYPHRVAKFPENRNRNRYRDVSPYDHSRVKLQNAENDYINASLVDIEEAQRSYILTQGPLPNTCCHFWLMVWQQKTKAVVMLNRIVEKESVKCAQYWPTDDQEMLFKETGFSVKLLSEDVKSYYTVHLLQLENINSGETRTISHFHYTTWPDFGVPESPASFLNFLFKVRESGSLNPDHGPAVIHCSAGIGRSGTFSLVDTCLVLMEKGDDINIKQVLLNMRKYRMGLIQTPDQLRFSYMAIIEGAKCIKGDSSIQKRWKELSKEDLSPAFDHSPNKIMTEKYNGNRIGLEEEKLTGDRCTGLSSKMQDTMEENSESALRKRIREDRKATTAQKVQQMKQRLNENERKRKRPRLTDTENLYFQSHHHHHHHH
Assay: Mobility shift assay (MSA) for potency of PTPN2 inhibitors
Assay type: biochemical
Conditions: read-out: PTPN2 MSA IC50
Measurement Kind: IC50

Task item: # lookup: His tagged PTPN2 (TC45) protein (Homo sapiens, UniProt P17706) IC50, key = `O=C1CN(c2c(O)cc3ccc(OCc4cn[nH]c4)cc3c2F)S(=O)(=O)N1`
Reply: 1 to 10 nM

Task item: Give measured IC50 for CS(=O)(=O)N1CCC(Nc2ccc3cc(O)c(N4CC(=O)NS4(=O)=O)c(F)c3c2)C1 (stereo not drawn) (His tagged PTPN2 (TC45) protein (Homo sapiens, UniProt P17706)).
Reply: 1 to 10 nM

Task item: Fetch value of IC50 on His tagged PTPN2 (TC45) protein (Homo sapiens, UniProt P17706) for `CC(C)NCCOc1ccc2cc(O)c(N3CC(=O)NS3(=O)=O)c(F)c2c1` .
Reply: 10 to 100 nM

Task item: # return IC50 of `O=C1CN(c2c(O)cc3ccc(C4=CCOCC4)cc3c2F)S(=O)(=O)N1` (system: His tagged PTPN2 (TC45) protein (Homo sapiens, UniProt P17706))
Reply: 1 to 10 nM

Task item: Give measured IC50 for `O=C1CN(c2c(O)cc3ccc(C4=CCN(C(=O)C5CC5)C4)cc3c2F)S(=O)(=O)N1` (His tagged PTPN2 (TC45) protein (Homo sapiens, UniProt P17706)).
Reply: 1 to 10 nM

Task item: # assay system His tagged PTPN2 (TC45) protein (Homo sapiens, UniProt P17706): give IC50 of `O=C1CN(c2c(O)cc3ccc(C(=O)NCC4CC4)cc3c2F)S(=O)(=O)N1`
Reply: 1 to 10 nM

Task item: Param request: IC50 | system His tagged PTPN2 (TC45) protein (Homo sapiens, UniProt P17706) | item O=C1CN(c2c(O)cc3ccc([C@@H]4CCNC4)cc3c2F)S(=O)(=O)N1 (single isomer, unassigned)
Reply: 1 to 10 nM

Task item: // fetch IC50 for `O=C(CNc1ccc2cc(O)c(N3CC(=O)NS3(=O)=O)c(F)c2c1)NCCC1CC1` ; system: His tagged PTPN2 (TC45) protein (Homo sapiens, UniProt P17706)
Reply: 1 to 10 nM

Task item: Return reported IC50 for target or system His tagged PTPN2 (TC45) protein (Homo sapiens, UniProt P17706), item O=C1CN(c2c(O)cc3ccc(OCC4CCCOC4)cc3c2F)S(=O)(=O)N1 (stereo not drawn) .
Reply: < 1 nM

Task item: Recall the reported IC50 of O=C1CN(c2c(O)cc3ccc(C4CCNC4)cc3c2F)S(=O)(=O)N1 (stereo not drawn) on His tagged PTPN2 (TC45) protein (Homo sapiens, UniProt P17706) and write it down.
Reply: 1 to 10 nM

Task item: Find IC50 for O=C1CN(c2c(O)c(Br)c3ccc(C4=CCN(S(=O)(=O)C5CC5)C4)cc3c2F)S(=O)(=O)N1 [Compound 231A] on His tagged PTPN2 (TC45) protein (Homo sapiens, UniProt P17706) and write it down.
Reply: 1 to 10 nM

Task item: Write down the reported IC50 (system: His tagged PTPN2 (TC45) protein (Homo sapiens, UniProt P17706)) of `N#Cc1c[nH]c(-c2ccc3cc(O)c(N4CC(=O)NS4(=O)=O)c(F)c3c2)n1`
Reply: 1 to 10 nM

Task item: Please report the measured IC50 for `COCCS(=O)(=O)N1CC=C(c2ccc3cc(O)c(N4CC(=O)NS4(=O)=O)c(F)c3c2)C1` tested on His tagged PTPN2 (TC45) protein (Homo sapiens, UniProt P17706).
Reply: < 1 nM

Task item: Name the value of IC50 reported for `O=C1CN(c2c(O)cc3ccc(C(F)F)cc3c2F)S(=O)(=O)N1` when tested on His tagged PTPN2 (TC45) protein (Homo sapiens, UniProt P17706).
Reply: 10 to 100 nM

Task item: For His tagged PTPN2 (TC45) protein (Homo sapiens, UniProt P17706), give IC50 of the listed compound: O=C1CN(c2c(O)cc3ccc(OCCC4CCCO4)cc3c2F)S(=O)(=O)N1 (stereo not drawn)
Reply: < 1 nM

Task item: Provide measured IC50 on His tagged PTPN2 (TC45) protein (Homo sapiens, UniProt P17706) for `O=C(COc1ccc2cc(O)c(N3CC(=O)NS3(=O)=O)c(F)c2c1)NCCC1CC1` please.
Reply: 1 to 10 nM

Task item: Specify IC50 for `CS(=O)(=O)N1CC[C@@H](Nc2ccc3cc(O)c(N4CC(=O)NS4(=O)=O)c(F)c3c2)C1` , system His tagged PTPN2 (TC45) protein (Homo sapiens, UniProt P17706).
Reply: 1 to 10 nM

Task item: Recall the reported IC50 of `COCc1ccc2cc(O)c(N3CC(=O)NS3(=O)=O)c(F)c2c1` on His tagged PTPN2 (TC45) protein (Homo sapiens, UniProt P17706) and write it down.
Reply: 10 to 100 nM

Task item: Give IC50 for this entry on His tagged PTPN2 (TC45) protein (Homo sapiens, UniProt P17706): O=C1CN(c2c(O)cc3ccc(OCC4CCCO4)cc3c2F)S(=O)(=O)N1 (stereo not drawn)
Reply: 1 to 10 nM

Task item: Look up and report IC50, with His tagged PTPN2 (TC45) protein (Homo sapiens, UniProt P17706) as system, for `COC/C=C/c1ccc2cc(O)c(N3CC(=O)NS3(=O)=O)c(F)c2c1`
Reply: 1 to 10 nM

Task item: Look up His tagged PTPN2 (TC45) protein (Homo sapiens, UniProt P17706) data: IC50 of `CC(C)(CN)CCOc1ccc2cc(O)c(N3CC(=O)NS3(=O)=O)c(F)c2c1` , then report it.
Reply: 1 to 10 nM

Task item: State recorded IC50 with His tagged PTPN2 (TC45) protein (Homo sapiens, UniProt P17706), entry `C[C@@H](O)CCCc1ccc2cc(O)c(N3CC(=O)NS3(=O)=O)c(F)c2c1` , no comment.
Reply: 1 to 10 nM

Task item: Provide IC50, system His tagged PTPN2 (TC45) protein (Homo sapiens, UniProt P17706), entry CC(C)N1CCC(F)(COc2ccc3cc(O)c(N4CC(=O)NS4(=O)=O)c(F)c3c2)C1 (stereo not drawn)
Reply: 1 to 10 nM

Task item: State IC50 (His tagged PTPN2 (TC45) protein (Homo sapiens, UniProt P17706)) of `O=C1CN(c2c(O)cc3ccc(C4=CCN(S(=O)(=O)C5CC5)C4)cc3c2F)S(=O)(=O)N1` .
Reply: < 1 nM

Task item: Please tell me the measured IC50 for `O=C1CN(c2c(O)cc3ccc(C4CNC4)cc3c2F)S(=O)(=O)N1` ; system: His tagged PTPN2 (TC45) protein (Homo sapiens, UniProt P17706).
Reply: 1 to 10 nM

Task item: Send back His tagged PTPN2 (TC45) protein (Homo sapiens, UniProt P17706) IC50 of `[2H]C1([2H])C(=O)NS(=O)(=O)N1c1c(O)cc2ccc(OC)cc2c1F` only.
Reply: 1 to 10 nM

Task item: Name the value of IC50 reported for `N#CC1(CNc2ccc3cc(O)c(N4CC(=O)NS4(=O)=O)c(F)c3c2)CC1` when tested on His tagged PTPN2 (TC45) protein (Homo sapiens, UniProt P17706).
Reply: 1 to 10 nM

Task item: Fill in IC50 for `O=C1CN(c2c(O)cc3ccc(CO)cc3c2F)S(=O)(=O)N1` tested with His tagged PTPN2 (TC45) protein (Homo sapiens, UniProt P17706).
Reply: 1 to 10 nM

Task item: Please look at `N#CCc1ccc2cc(O)c(N3CC(=O)NS3(=O)=O)c(F)c2c1` and tell me its recorded IC50 on His tagged PTPN2 (TC45) protein (Homo sapiens, UniProt P17706).
Reply: 1 to 10 nM

Task item: Under His tagged PTPN2 (TC45) protein (Homo sapiens, UniProt P17706): report IC50 of `O=C1CN(c2c(O)cc3ccc(OCCOC4CCC4)cc3c2F)S(=O)(=O)N1` .
Reply: 1 to 10 nM

Task item: Look up and report measured IC50 (His tagged PTPN2 (TC45) protein (Homo sapiens, UniProt P17706)) for the following compound: `O=C1CN(c2c(O)cc3ccc(OCC4CCOCC4)cc3c2F)S(=O)(=O)N1`
Reply: 1 to 10 nM

Task item: Give His tagged PTPN2 (TC45) protein (Homo sapiens, UniProt P17706) IC50 for the following compound: O=C1CN(c2c(O)c(Br)c3ccc(-c4ccn(S(=O)(=O)C5CC5)c4)cc3c2F)S(=O)(=O)N1 [Compound 231B]
Reply: 1 to 10 nM

Task item: Lab note: record IC50 of `O=C1CN(c2c(O)cc3ccc(C4=CCN(CC5CC5)C4)cc3c2F)S(=O)(=O)N1` tested on His tagged PTPN2 (TC45) protein (Homo sapiens, UniProt P17706).
Reply: 1 to 10 nM
